Just for reference, patent US8546377B2 is where these values come from.

# system: 5HT2B receptors (Homo sapiens, UniProt P41595)
# Construct: expressed in transfected cells; host or cells: CHO-K1 cells
# Sequence (P41595 whole entry): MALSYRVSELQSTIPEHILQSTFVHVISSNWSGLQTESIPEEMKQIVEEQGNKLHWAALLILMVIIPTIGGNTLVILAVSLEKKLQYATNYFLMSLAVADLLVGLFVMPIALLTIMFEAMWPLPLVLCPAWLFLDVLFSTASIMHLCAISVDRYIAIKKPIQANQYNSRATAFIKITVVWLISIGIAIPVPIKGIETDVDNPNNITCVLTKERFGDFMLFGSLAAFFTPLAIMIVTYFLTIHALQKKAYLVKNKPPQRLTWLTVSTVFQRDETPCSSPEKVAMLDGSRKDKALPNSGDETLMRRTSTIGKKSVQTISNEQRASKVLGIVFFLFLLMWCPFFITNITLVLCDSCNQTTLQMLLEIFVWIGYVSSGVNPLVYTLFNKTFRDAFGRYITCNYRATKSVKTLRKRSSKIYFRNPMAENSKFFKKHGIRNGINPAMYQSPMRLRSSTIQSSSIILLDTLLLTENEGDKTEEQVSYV
# assay remarks: Human 5-HT2B functional assay in CHO-K1 cells (calcium flux, FLIPR)
# Type: cell-based
endpoint label: pEC50
FYI, pEC50 means -log10 of a concentration in mol per litre.

Query (compound): CCc1ccc2c(c1)N1CCNC[C@@H]1CCO2 ; field requested: pEC50
7.40

Query (compound): C[C@@H]1C[C@H]2CNCCN2c2ccccc2O1 (single isomer, unassigned) ; field requested: pEC50
7.22

Query (compound): Clc1ccc2c(c1)N1CCNC[C@@H]1CCO2 ; field requested: pEC50
7.52

Query (compound): CN1CCN2c3ccccc3OCC[C@@H]2C1 ; field requested: pEC50
6.70

Query (compound): O=C1CC2CNCCN2c2cc(F)ccc2N1 (stereo not shown) ; field requested: pEC50
6.22

Query (compound): O=C1C[C@@H]2CNCCN2c2cccc(F)c2N1 ; field requested: pEC50
5.98

Query (compound): Clc1ccc2c(c1)OCC[C@@H]1CNCCN21 ; field requested: pEC50
7.52

Query (compound): Clc1cc2c(cc1Cl)N1CCNC[C@@H]1CCO2 ; field requested: pEC50
7.52

Query (compound): [2H]c1ccc2c(c1)OCC[C@H]1CNCCN21 ; field requested: pEC50
7.05

Query (compound): Clc1ccc2c(c1)N1CCNC[C@H]1CCO2 ; field requested: pEC50
7.52

Query (compound): O=C1C[C@H]2CNCCN2c2cc(Cl)ccc2N1 ; field requested: pEC50
8.22
